The measurements presented in this section are drawn from the supplement of paper PMC10307832.

System: SW 900
Assay: relative viability (nuclei count vs DMSO), 5 days (fraction); higher = more cells survive
Conditions: first compound 0.1581 µM
MEASUREMENT_KIND: relative viability
When you answer, write just the number.

Task item: Looking for the measured relative viability of Nc1ccn([C@@H]2O[C@H](CO)[C@@H](O)[C@@H]2O)c(=O)n1 [Cytarabine] + Nc1ncn([C@H]2C[C@H](O)[C@@H](CO)O2)c(=O)n1 [Decitabine] (partner 2 µM) , can you help?
Reply: 0.199

Task item: Next up: COc1cc2nccc(Oc3ccc(NC(=O)Nc4cc(C)on4)c(Cl)c3)c2cc1OC [Tivozanib] + CCNC(=O)c1noc(-c2cc(C(C)C)c(O)cc2O)c1-c1ccc(CN2CCOCC2)cc1 [Luminespib] (partner 0.01 µM)
Reply: 0.167

Task item: Do the same for Nc1ccn([C@@H]2O[C@H](CO)[C@@H](O)[C@@H]2O)c(=O)n1 [Cytarabine] + COc1cc2c(Oc3ccc(NC(=O)C4(C(=O)Nc5ccc(F)cc5)CC4)cc3F)ccnc2cc1OCCCN1CCOCC1 [Foretinib] (partner 0.25 µM) please
Reply: 0.21

Task item: Thanks! And Nc1ccn([C@@H]2O[C@H](CO)[C@@H](O)[C@@H]2O)c(=O)n1 [Cytarabine] + Nc1nc2[nH]cc(CCc3ccc(C(=O)N[C@@H](CCC(=O)O)C(=O)O)cc3)c2c(=O)[nH]1 [Pemetrexed] (partner 0.2 µM) ?
Reply: 0.179

###

Form field: relative viability (one value per entry).
System: NCI-H838
Assay: relative viability (nuclei count vs DMSO), 5 days (fraction); higher = more cells survive
Details: first compound 0.1581 µM
Number, no unit, nothing else.

COMPOUND | relative viability
Nc1ccn([C@@H]2O[C@H](CO)[C@@H](O)[C@@H]2O)c(=O)n1 [Cytarabine] + Nc1nc2[nH]cc(CCc3ccc(C(=O)N[C@@H](CCC(=O)O)C(=O)O)cc3)c2c(=O)[nH]1 [Pemetrexed] (partner 0.2 µM) | 0.216
COc1cc2nccc(Oc3ccc(NC(=O)Nc4cc(C)on4)c(Cl)c3)c2cc1OC [Tivozanib] + Nc1ncn([C@H]2C[C@H](O)[C@@H](CO)O2)c(=O)n1 [Decitabine] (partner 2 µM) | 0.482
COc1cc2nccc(Oc3ccc(NC(=O)Nc4cc(C)on4)c(Cl)c3)c2cc1OC [Tivozanib] + CC(=O)c1c(C)c2cnc(Nc3ccc(N4CCNCC4)cn3)nc2n(C2CCCC2)c1=O [Palbociclib] (partner 0.5 µM) | 0.2

Task item: Give its relative viability value. Item: Nc1ccn([C@@H]2O[C@H](CO)[C@@H](O)[C@@H]2O)c(=O)n1 [Cytarabine] + CS(=O)(=O)N1CCN(Cc2cc3nc(-c4cccc5[nH]ncc45)nc(N4CCOCC4)c3s2)CC1 [Pictilisib] (partner 1 µM)
Reply: 0.257

Task item: And then Nc1ccn([C@@H]2O[C@H](CO)[C@@H](O)[C@@H]2O)c(=O)n1 [Cytarabine] + NC(=O)Nc1cc(-c2cccc(F)c2)sc1C(=O)N[C@H]1CCCNC1 [AZD7762] (partner 0.2 µM) , what is it?
Reply: 0.652

Task item: Try the compound COc1cc2nccc(Oc3ccc(NC(=O)Nc4cc(C)on4)c(Cl)c3)c2cc1OC [Tivozanib] + Nc1nc2[nH]cc(CCc3ccc(C(=O)N[C@@H](CCC(=O)O)C(=O)O)cc3)c2c(=O)[nH]1 [Pemetrexed] (partner 0.2 µM)
Reply: 0.257
